- TEST_SYSTEM: T1, P8A-bA
- T1 chain: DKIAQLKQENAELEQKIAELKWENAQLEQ
- TEST_PROTOCOL: two-hybrid library CCNG1;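 note: natural log of median RNA to DNA barcode read ratio; higher means stronger binding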
RECORDED_METRIC: interaction score

Study these solved cases before continuing.
{"BINDER": "DEIAQLEQEIAELEQKNAELKWKNAQLKQ [P3A-bA]", "interaction score": 0.146}
{"BINDER": "DKIAQLKQKIAELKQENAELEWENAQLEQ [P4A-bA]", "interaction score": -0.955}

(a) DENAQLEQKIAELKQKNAELKWEIAQLEQ [P5A-bA]
(b) DKIAQLKQENAELEQKIAELKWENAQLEQ [P8A-bA]
Prompt line: Looking only at measured interaction score, which entry is lower, a or b ? Mark your selection by writing its label.
Response line: b
